Measured values drawn from patent US7981903B2 for this set.

Biological target: human IR (hIR) (Homo sapiens, UniProt P06213)
Construct: containing amino acid residues 979-1382 of human IR
Test: TR-FRET kinase assay of purified hIR
Details: activated hIR 0.5 nM, 10 μM ATP, values given as pIC50 category
Listed here are molecules together with their documented IC50.

Look over these answered cases.
MOLECULAR_STRING	IC50
CNC(=O)c1c(F)cccc1Nc1nc(Nc2cc3c(cc2OC)CCCN3C(=O)CN(C)C)nc2[nH]ccc12	1.26 to 3.98 nM
CNC(=O)c1c(F)cccc1Nc1nc(Nc2cc3c(cc2OC)CCCN3C(C)=O)nc2[nH]ccc12	5.01 to 158 nM
COc1cc2c(cc1Nc1nc(Nc3cccc(F)c3C(N)=O)c3cc[nH]c3n1)CN(C(=O)CCN(C)C)CC2	5.01 to 158 nM
COc1cc2c(cc1Nc1nc(Nc3cccc(F)c3C(N)=O)c3cc[nH]c3n1)N(C(C)=O)CC2	1.26 to 3.98 nM
COc1ccc(CS(C)(=O)=O)cc1Nc1nc(Nc2ccccc2C(N)=O)c2cc[nH]c2n1	5.01 to 158 nM

*Q* Would you kindly share the measured IC50 for `CNC(=O)c1c(F)cccc1Nc1nc(Nc2cc3c(cc2OC)CCN3C(=O)CN2CCCC2)nc2[nH]ccc12` ?
*A* 1.26 to 3.98 nM

*Q* // same read-out, input: `CCCN1CCC(c2ccc(Nc3nc(Nc4cccc(F)c4C(N)=O)c4cc[nH]c4n3)c(OC)c2)CC1`
*A* 0.251 to 1 nM

---

Target: human IGF1R (hIGF1R) (Homo sapiens)
Construct: containing amino acid residues 957-1367 of human IGF1R; made in house; host or cells: Sf9 cells (baculovirus)
Assay: TR-FRET kinase assay of purified hIGF1R
Format: biochemical
Conditions: activated hIGF1R 0.5 nM, 10 μM ATP, values given as pIC50 category, read-out: IGF-1R pIC50 (converted)
MEASURE: IC50

MOLECULAR_STRING	VALUE_REPORTED
CCCN1CCC(c2ccc(Nc3nc(Nc4cc(F)c(F)cc4C(N)=O)c4cc[nH]c4n3)c(OC)c2)CC1	0.251 to 1 nM
COc1cc2c(cc1Nc1nc(Nc3cc(F)cc(F)c3C(N)=O)c3cc[nH]c3n1)NCCC2	5.01 to 200 nM
CN(C)CC(=O)Nc1ccc(Cl)c(Nc2nc(Nc3ccccc3C(N)=O)c3cc[nH]c3n2)c1	0.251 to 1 nM

Next up:
*Q* Entry `CNC(=O)c1ccccc1Nc1nc(Nc2ccc(C3=CCCN(C)C3)cc2OC)nc2[nH]ccc12` has what IC50?
*A* 1.26 to 3.98 nM

---

Target: human IGF1R (hIGF1R) (Homo sapiens, UniProt P08069)
Construct: containing amino acid residues 957-1367 of human IGF1R; made in house; host or cells: Sf9 cells (baculovirus)
Sequence (P08069 957-1367): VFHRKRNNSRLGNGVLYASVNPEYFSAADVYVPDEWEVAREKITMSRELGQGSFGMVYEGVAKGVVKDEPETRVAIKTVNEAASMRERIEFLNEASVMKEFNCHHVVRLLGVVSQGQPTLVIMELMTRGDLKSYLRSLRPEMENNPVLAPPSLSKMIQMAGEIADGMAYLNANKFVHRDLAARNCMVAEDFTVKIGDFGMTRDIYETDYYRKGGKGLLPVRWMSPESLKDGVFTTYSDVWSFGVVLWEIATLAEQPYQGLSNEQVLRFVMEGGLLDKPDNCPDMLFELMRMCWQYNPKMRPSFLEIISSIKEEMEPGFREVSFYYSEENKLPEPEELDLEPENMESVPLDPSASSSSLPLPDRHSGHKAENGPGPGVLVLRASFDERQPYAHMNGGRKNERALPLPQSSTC
Assay: TR-FRET kinase assay of purified hIGF1R
Assay type: biochemical
Settings: activated hIGF1R 0.5 nM, 10 μM ATP, values given as pIC50 category, read-out: IGF-1R pIC50 (converted)
Recorded IC50, one value per entry.

Some compounds with recorded IC50:
MOLECULAR_STRING	IC50
COc1cc2c(cc1Nc1nc(Nc3cc(Cl)cc(F)c3C(N)=O)c3cc[nH]c3n1)N(C(=O)CN1CCCC1)CC2	0.251 to 1 nM
CCCN1CCC=C(c2ccc(Nc3nc(Nc4ccccc4C(=O)NC)c4cc[nH]c4n3)c(OC)c2)C1	1.26 to 3.98 nM
COc1cc(C2CCN(C(C)C)CC2)ccc1Nc1nc(Nc2cc(F)c(F)cc2C(N)=O)c2cc[nH]c2n1	0.251 to 1 nM
CNC(=O)c1c(F)cc(Cl)cc1Nc1nc(Nc2cc3c(cc2OC)CCN3C(=O)CN(C)C)nc2[nH]ccc12	0.251 to 1 nM
COc1ccc(OC[C@@H](O)CN2CCCC2)cc1Nc1nc(Nc2cc(F)c(F)cc2C(N)=O)c2cc[nH]c2n1	0.251 to 1 nM
CCCN1CCC=C(c2ccc(Nc3nc(Nc4cc(F)c(F)cc4C(N)=O)c4cc[nH]c4n3)c(OC)c2)C1	0.251 to 1 nM

Please turn your attention to the following entry.
*Q* Observed IC50 on human IGF1R (hIGF1R) (Homo sapiens, UniProt P08069) for `CCCN1CCC=C(c2ccc(Nc3nc(Nc4cccc(F)c4C(N)=O)c4cc[nH]c4n3)c(C)c2)C1` , please.
*A* 1.26 to 3.98 nM

---

Target: human IR (hIR) (Homo sapiens)
Construct: containing amino acid residues 979-1382 of human IR
Test: TR-FRET kinase assay of purified hIR
Details: activated hIR 0.5 nM, 10 μM ATP, values given as pIC50 category
pIC50: −log10 of the molar value.
MEASURE: pIC50

In the examples that follow, each entry is paired with its recorded pIC50.
MOLECULE	MEASURE	VALUE_REPORTED
CCCN1CCC=C(c2ccc(Nc3nc(Nc4cc(F)c(F)cc4C(N)=O)c4cc[nH]c4n3)c(OC)c2)C1 [Example 95]	pIC50	9.00 to 9.60
CNC(=O)c1c(F)cccc1Nc1nc(Nc2cc(N(C)C(=O)CN(C)C)c(C)cc2OC)nc2[nH]ccc12 [Example 254]	pIC50	6.80 to 8.30

*Q* Item under review: COc1cc(N2CCC(N3CC[C@H](F)C3)CC2)ccc1Nc1nc(Nc2cc(F)ccc2C(N)=O)c2cc[nH]c2n1 [Example 75] . Reported pIC50?
*A* 9.00 to 9.60

*Q* Try this molecule too: COc1cc2c(cc1Nc1nc(Nc3cccc4c3C(=O)NC4)c3cc[nH]c3n1)N(C(=O)CN(C)C)CC2 [Example 200]
*A* 9.00 to 9.60

*Q* What would you report for COc1cc2c(cc1Nc1nc(Nc3cc(F)cc(F)c3C(N)=O)c3cc[nH]c3n1)CN(CCF)CC2 [Example 239] ?
*A* 8.40 to 8.90

*Q* Please answer likewise for COc1cc2c(cc1Nc1nc(Nc3cccc(F)c3C(N)=O)c3cc[nH]c3n1)CN(C)CC2 [Example 121]
*A* 8.40 to 8.90

*Q* Same thing, different molecule: CCCN1CCC(c2ccc(Nc3nc(Nc4cc(F)c(F)cc4C(N)=O)c4cc[nH]c4n3)c(OC)c2)CC1 [Example 98]
*A* 9.00 to 9.60

---

Biological target: human IR (hIR) (Homo sapiens, UniProt P06213)
Construct: containing amino acid residues 979-1382 of human IR
Assay: TR-FRET kinase assay of purified hIR
Settings: activated hIR 0.5 nM, 10 μM ATP, values given as pIC50 category
Protocol: Time Resolved Fluorescence Resonance Energy Transfer (TR-FRET) assays were carried out on the exemplified compounds as follows: Purity is determined by HPLC. The calculated molecular mass of the peptide is 2216 dalton. […] True peptide concentration is determined by amino acid analysis. […] Assays are performed in 384-well (Greiner, Catalog No. 784076) microtiter plates. […] Compounds, titrated in DMSO, are evaluated at eleven concentrations ranging from 50 μM to 0.2 nM. […]
Catalogue of IC50 values

MOLECULAR_STRING	IC50
CNC(=O)c1c(F)cccc1Nc1nc(Nc2cc3c(cc2Cl)CCN3C(=O)CN(C)C)nc2[nH]ccc12	1.26 to 3.98 nM

Next compound, please.
*Q* I'd like to know its IC50. The compound in question is `CNC(=O)c1ccccc1Nc1nc(Nc2ccc(C3=CCCN(C)C3)cc2OC)nc2[nH]ccc12`
*A* 0.251 to 1 nM

---

Target: NIH-3T3 cells overexpressing human IR (Homo sapiens, UniProt P06213)
Construct: expressed in transfected cells; host or cells: NIH-3T3 (mouse fibroblasts)
Sequence (P06213 28-1382): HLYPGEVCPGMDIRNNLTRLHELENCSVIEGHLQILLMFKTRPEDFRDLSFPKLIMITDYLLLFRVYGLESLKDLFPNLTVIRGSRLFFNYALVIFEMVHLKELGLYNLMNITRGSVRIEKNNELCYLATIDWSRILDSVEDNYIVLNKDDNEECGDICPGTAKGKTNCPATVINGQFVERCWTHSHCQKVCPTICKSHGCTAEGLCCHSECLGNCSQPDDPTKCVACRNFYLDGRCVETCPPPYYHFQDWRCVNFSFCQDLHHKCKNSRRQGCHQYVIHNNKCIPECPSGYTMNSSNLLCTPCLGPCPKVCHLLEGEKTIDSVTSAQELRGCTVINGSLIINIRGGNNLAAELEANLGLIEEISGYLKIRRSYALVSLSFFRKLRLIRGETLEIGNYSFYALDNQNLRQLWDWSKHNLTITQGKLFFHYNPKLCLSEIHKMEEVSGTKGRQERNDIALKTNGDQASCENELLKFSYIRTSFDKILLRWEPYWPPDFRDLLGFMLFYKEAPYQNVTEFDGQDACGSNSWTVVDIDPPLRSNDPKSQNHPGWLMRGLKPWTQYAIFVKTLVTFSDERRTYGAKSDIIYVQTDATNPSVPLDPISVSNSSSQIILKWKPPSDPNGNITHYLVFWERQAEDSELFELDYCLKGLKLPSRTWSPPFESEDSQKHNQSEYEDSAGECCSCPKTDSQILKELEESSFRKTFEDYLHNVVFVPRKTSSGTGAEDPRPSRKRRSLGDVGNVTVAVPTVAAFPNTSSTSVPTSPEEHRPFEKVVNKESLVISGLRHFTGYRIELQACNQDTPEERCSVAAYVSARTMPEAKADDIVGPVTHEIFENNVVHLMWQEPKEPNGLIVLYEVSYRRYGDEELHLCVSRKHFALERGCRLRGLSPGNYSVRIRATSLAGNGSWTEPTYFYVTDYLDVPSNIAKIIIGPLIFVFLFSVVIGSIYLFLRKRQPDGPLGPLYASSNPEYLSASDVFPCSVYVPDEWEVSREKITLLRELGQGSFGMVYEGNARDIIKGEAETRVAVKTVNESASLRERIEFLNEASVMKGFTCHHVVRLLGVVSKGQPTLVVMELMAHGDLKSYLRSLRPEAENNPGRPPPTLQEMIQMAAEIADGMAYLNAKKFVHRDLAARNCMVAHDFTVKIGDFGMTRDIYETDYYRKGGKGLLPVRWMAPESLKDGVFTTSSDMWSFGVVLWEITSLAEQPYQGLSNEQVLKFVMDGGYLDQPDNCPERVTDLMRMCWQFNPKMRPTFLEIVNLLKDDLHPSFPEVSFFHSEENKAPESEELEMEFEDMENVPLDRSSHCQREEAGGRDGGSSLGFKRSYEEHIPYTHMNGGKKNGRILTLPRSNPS
Assay: IR cellular autophosphorylation (DELFIA)
Format: cell-based
Settings: 2 h compound, insulin 3 ug/ml for 15 minutes, IC50 category
MEASURE: IC50

MOLECULAR_STRING	TARGET_OR_SYSTEM	MEASURE	VALUE_REPORTED
COc1cc(N2CCN(CC(C)C)CC2)ccc1Nc1nc(Nc2cc(F)ccc2C(N)=O)c2cc[nH]c2n1	NIH-3T3 cells overexpressing human IR (Homo sapiens, UniProt P06213)	IC50	0.1 to 0.5 µM
COc1cc2c(cc1Nc1nc(Nc3cccc(F)c3C(N)=O)c3cc[nH]c3n1)CN(C(=O)CCN1CCOCC1)CC2	NIH-3T3 cells overexpressing human IR (Homo sapiens, UniProt P06213)	IC50	> 0.5 µM
Cc1cc2c(cc1Nc1nc(Nc3cccc(F)c3C(N)=O)c3cc[nH]c3n1)N(C(=O)CN(C)C)CCC2	NIH-3T3 cells overexpressing human IR (Homo sapiens, UniProt P06213)	IC50	0.1 to 0.5 µM
CNCC(=O)N1CCc2cc(OC)c(Nc3nc(Nc4cccc(F)c4C(N)=O)c4cc[nH]c4n3)cc21	NIH-3T3 cells overexpressing human IR (Homo sapiens, UniProt P06213)	IC50	0.1 to 0.5 µM
CN(C)CC(=O)Nc1ccc(OC(F)(F)F)c(Nc2nc(Nc3ccccc3C(N)=O)c3cc[nH]c3n2)c1	NIH-3T3 cells overexpressing human IR (Homo sapiens, UniProt P06213)	IC50	0.1 to 0.5 µM
CCCN1CCC(c2ccc(Nc3nc(Nc4cc(F)cc(F)c4C(N)=O)c4cc[nH]c4n3)c(OC)c2)CC1	NIH-3T3 cells overexpressing human IR (Homo sapiens, UniProt P06213)	IC50	< 0.1 µM
COc1cc2c(cc1Nc1nc(Nc3cc4ccccc4cc3C(N)=O)c3cc[nH]c3n1)N(C(=O)CN(C)C)CC2	NIH-3T3 cells overexpressing human IR (Homo sapiens, UniProt P06213)	IC50	0.1 to 0.5 µM
COc1cc2c(cc1Nc1nc(Nc3cccc(F)c3C(N)=O)c3cc[nH]c3n1)N(C(=O)N(C)C)CC2	NIH-3T3 cells overexpressing human IR (Homo sapiens, UniProt P06213)	IC50	> 0.5 µM
COc1cc(N2CCN(S(C)(=O)=O)CC2)ccc1Nc1nc(Nc2cccc(F)c2C(N)=O)c2cc[nH]c2n1	NIH-3T3 cells overexpressing human IR (Homo sapiens, UniProt P06213)	IC50	> 0.5 µM
COc1c(Nc2nc(Nc3cccc(F)c3C(N)=O)c3cc[nH]c3n2)ccc(N2CCN(C(C)C)CC2)c1F	NIH-3T3 cells overexpressing human IR (Homo sapiens, UniProt P06213)	IC50	> 0.5 µM

*Q* Quick one: IC50 for `CCCNC(=O)c1c(F)cccc1Nc1nc(Nc2cc3c(cc2OC)CCN3C(=O)CN(C)C)nc2[nH]ccc12` ?
*A* 0.1 to 0.5 µM
